Method Description: in vivo
Condition Context: pig, liver, intravenous, 100 mg
Recorded Metric: concentration at 1 h (ng/g)

Compound | Recorded Metric | Reading
COc1cccc2c1C(=O)c1c(O)c3c(c(O)c1C2=O)C[C@@](O)(C(=O)CO)C[C@@H]3O[C@H]1C[C@H](N)[C@H](O)[C@H](C)O1 [doxorubicin] | concentration at 1 h | 6930
